FYI, the data here is from patent US6156700A.

# Tested on: GALAP
# EXPERIMENT_SUMMARY: Preemergence herbicidal evaluation
# Type: in vivo
# Set-up: scale not given here
# ASSAY_SETUP: 0.1250 kg/ha
Below, each entry is listed alongside its reported herbicidal effect rating.
Response field accepts a number only; no unit should be typed.

COMPOUND	herbicidal effect rating
O=C1C2=C(CCCC2)C(=O)N1c1ccc2snc(-c3ccccc3)c2c1 [A]	7.0
Cc1nsc2ccc(-n3c(=O)cc(C(F)(F)F)n(C)c3=O)cc12 [Compound 6]	9.0
CN(C)C(=O)c1nsc2ccc(-n3c(=O)cc(C(F)(F)F)n(C)c3=O)cc12 [Compound 329]	9.0
Cn1c(C(F)(F)F)cc(=O)n(-c2ccc3snc(-c4ccccc4)c3c2)c1=O [Compound 4]	6.0
O=C1C2=C(CCCC2)C(=O)N1c1ccc2sncc2c1 [C]	2.0

Let us move to another entry and its herbicidal effect rating.
Which herbicidal effect rating is listed for Cc1nsc2ccc(N3C(=O)C4=C(CCCC4)C3=O)cc12 [B] ?
5.0

* * *

As shown below, each of these molecules has a reported herbicidal effect rating value.
# System: SAGPY Arrowhead (Pygmaea)
# EXPERIMENT_SUMMARY: Postemergence weed control, flooded paddy (Table IV)
# Type: in vivo, Sagittaria pygmaea
# Design: scale not given here
# ASSAY_SETUP: 0.1250 kg/ha
Answer as a number with no unit attached.

MOLECULE	QUANTITATIVE_RESULT
COc1cc(C)c(I)cc1-c1nsc2ccc(-n3c(=O)cc(C(F)(F)F)n(C)c3=O)cc12	0.0
COC(=O)C(C)Oc1cc(C)ccc1-c1nsc2ccc(-n3c(=O)cc(C(F)(F)F)n(C)c3=O)cc12 (stereo not shown)	2.0
CC(C)S(=O)(=O)NC(=O)c1nsc2ccc(-n3c(=O)cc(C(F)(F)F)n(C)c3=O)cc12	4.0
COC(=O)C(C)Oc1cc(C)c(C)cc1-c1nsc2ccc(-n3c(=O)cc(C(F)(F)F)n(C)c3=O)cc12 (stereo not shown)	2.0
COC(=O)COc1ccc(C)cc1-c1noc2ccc(-n3c(=O)cc(C(F)(F)F)n(C)c3=O)c(Cl)c12	0.0

Can you look up the measured herbicidal effect rating of C#CCOC(=O)C(C)(C)Oc1ccc(C)cc1-c1nsc2ccc(-n3c(=O)cc(C(F)(F)F)n(C)c3=O)cc12 for me?
0.0

Now the molecule COc1c(-c2nsc3ccc(-n4c(=O)cc(C(F)(F)F)n(C)c4=O)cc23)ccc(C)c1C
0.0

* * *

# Test system: Sicklepod, Cassia obtusifolia
# EXPERIMENT_SUMMARY: Preemergence herbicidal evaluation, CASOB
# Assay type: in vivo, L.
# ASSAY_SETUP: 0.2500 kg/ha
# herbicide rating (0-9) per record follows

Reference set, count: 2
COMPOUND	TARGET_UNDER_TEST	herbicide rating (0-9)
COc1cc(C)ccc1-c1nsc2ccc(-n3c(=O)cc(C(F)(F)F)n(C)c3=O)cc12	Sicklepod, Cassia obtusifolia	9.0
COC(=O)C(C)Oc1c(C)cc(C)cc1-c1nsc2ccc(-n3c(=O)cc(C(F)(F)F)n(C)c3=O)cc12 (centres unmarked)	Sicklepod, Cassia obtusifolia	9.0

Quick check: herbicide rating (0-9) of COC(=O)COc1cc(C)c(C)cc1-c1nsc2ccc(-n3c(=O)cc(C(F)(F)F)n(C)c3=O)cc12 ?
9.0

Same question, Cn1c(C(F)(F)F)cc(=O)n(-c2ccc3snc(-c4ccccc4)c3c2)c1=O this time
9.0

Same thing, different compound: COc1ccc(C)cc1-c1nsc2ccc(-n3c(=O)cc(C)n(C)c3=O)cc12
4.0
